Value source: patent US20200317779A1

assay-target: T1, CD3 on human T cells (H9 cells, ATCC HTB-176) (human)
T1 construct: whole, on cells; The target is printed as 'human T cells'
T1 sequence (P07766 23-207, chain 1 of 3): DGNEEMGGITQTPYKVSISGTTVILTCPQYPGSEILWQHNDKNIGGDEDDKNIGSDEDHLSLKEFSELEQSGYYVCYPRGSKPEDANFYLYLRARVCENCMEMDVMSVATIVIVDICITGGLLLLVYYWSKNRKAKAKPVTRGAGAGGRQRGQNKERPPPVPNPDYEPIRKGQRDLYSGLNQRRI
T1 sequence (P04234 22-171, chain 2 of 3, further chain): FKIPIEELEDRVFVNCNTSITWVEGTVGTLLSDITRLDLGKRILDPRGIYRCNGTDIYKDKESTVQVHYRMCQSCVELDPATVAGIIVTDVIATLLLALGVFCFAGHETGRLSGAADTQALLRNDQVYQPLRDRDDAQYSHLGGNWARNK
T1 sequence (P09693 23-182, chain 3 of 3, further chain): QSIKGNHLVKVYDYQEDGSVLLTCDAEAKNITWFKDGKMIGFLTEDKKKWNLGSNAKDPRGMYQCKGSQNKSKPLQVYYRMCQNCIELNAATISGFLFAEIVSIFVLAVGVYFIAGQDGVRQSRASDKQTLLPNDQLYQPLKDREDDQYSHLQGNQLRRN
assay-name: flow cytometry on H9 cells, 1 µg antibody per 2x10^5 cells in 100 µl, PE anti-human IgG detection
measurement-name: Mean : PE-A
Numbers only.

The cases that follow already have their Mean : PE-A on record.
binder	readout-value
C08 (antibody, human IgG1, lambda, L234A L235A, V domains shown, humanized SP34 IgG1, lambda; also called C8) VH: EVQLVESGGGLVQPGGSLKLSCAASGFTFNTYAMNWVRQASGKGLEWVGRIRSKYNNYATYYADSVKDRFTISRDDSQSTAYLQMNSLKTEDTAVYYCVRHGNFGNSYVSWFAYWGQGTLVTVSS VL: QAVVTQEPSLTVSPGGTVTLTCRSSTGAVTTSNYANWFQQKPGQAPRGLIGGTNKRAPWTPARFSGSLLGDKAALTLSGAQPEDEAEYYCALWYSNLWVFGGGTKLTVLG	4680
C16 (antibody, human IgG1, lambda, L234A L235A, V domains shown, humanized SP34 IgG1, lambda) VH: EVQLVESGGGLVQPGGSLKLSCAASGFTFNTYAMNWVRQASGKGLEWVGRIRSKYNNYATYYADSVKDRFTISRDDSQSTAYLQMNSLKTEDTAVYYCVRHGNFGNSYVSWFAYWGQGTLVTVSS VL: QAVVTQEPSLTVSPGGTVTLTCRSSTGAVTTSNYANWVQQKPGQAPRGLIGGTNKRAPWTPARFSGSLLGDKAALTLSGAQPEDEAEYYCALWYSNLWVFGGGTKLTVLG	17700

Then there is this binder:
For record B08 (antibody, human IgG1, lambda, L234A L235A, V domains shown, humanized SP34 IgG1, lambda; also called B8) VH: EVQLVESGGGLVQPGGSLKLSCAASGFTFNTYAMNWVRQASGKGLEWVGRIRSKYNNYATYYADSVKDRFTISRDDSKNTLYLQMNSLKTEDTAVYYCVRHGNFGNSYVSWFAYWGQGTLVTVSS VL: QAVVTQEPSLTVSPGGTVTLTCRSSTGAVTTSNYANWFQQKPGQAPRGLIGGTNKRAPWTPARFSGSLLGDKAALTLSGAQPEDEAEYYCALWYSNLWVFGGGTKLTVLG the listed Mean : PE-A is 3780
